// data source = patent US7026516B2

measured_target: dopamine transporter (Macaca fascicularis)
Construct: Each caudate-putamen was homogenized and used separately for dopamine and serotonin transporter assays; from tissue; host or cells: caudate-putamen membranes of adult cynomolgus or rhesus monkey brain
Sequence (Q9GJT6 whole entry): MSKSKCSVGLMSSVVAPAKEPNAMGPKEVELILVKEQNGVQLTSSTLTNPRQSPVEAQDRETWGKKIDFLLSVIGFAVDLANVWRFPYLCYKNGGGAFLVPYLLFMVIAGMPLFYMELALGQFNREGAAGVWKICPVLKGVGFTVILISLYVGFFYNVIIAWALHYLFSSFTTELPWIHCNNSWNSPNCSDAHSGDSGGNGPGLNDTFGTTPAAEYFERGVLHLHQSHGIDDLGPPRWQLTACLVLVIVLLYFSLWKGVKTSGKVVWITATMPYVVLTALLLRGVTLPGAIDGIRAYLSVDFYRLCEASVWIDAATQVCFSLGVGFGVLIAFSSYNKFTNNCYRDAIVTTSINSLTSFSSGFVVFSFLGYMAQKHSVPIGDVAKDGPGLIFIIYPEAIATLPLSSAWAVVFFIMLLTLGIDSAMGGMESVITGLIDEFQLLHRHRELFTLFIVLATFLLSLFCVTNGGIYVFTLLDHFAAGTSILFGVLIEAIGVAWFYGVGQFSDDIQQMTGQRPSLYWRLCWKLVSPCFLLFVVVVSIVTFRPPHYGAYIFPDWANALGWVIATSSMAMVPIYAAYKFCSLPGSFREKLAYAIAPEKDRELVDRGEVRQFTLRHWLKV
method_summary: Inhibition of [3H]WIN 35,428 binding to the dopamine transporter in monkey caudate-putamen
condition_info: Table 2; ratio of SERT and DAT IC50 values
Use T when the recorded DAT/SERT RATIO is no lower than 20; use F when it is lower.

compound	cat
CO[C@@H]1C[C@H](c2ccc3ccccc3c2)c2ccccc21 (relative stereo) [Compound 0-1833, Cis-3-(2-Naphthyl)-0-methylindanol]	F
CO[C@@H]1C[C@@H](c2ccc3ccccc3c2)c2ccccc21 (relative stereo) [Compound 0-1925, Trans-1-Methoxy-3-(2-naphthyl)indans]	F
CO[C@@H]1C[C@H](c2ccc(Cl)c(Cl)c2)c2ccccc21 (relative stereo) [Compound 0-1617]	T
CO[C@@H]1C[C@@H](c2ccc(Cl)c(Cl)c2)c2ccccc21 (relative stereo) [Compound 0-1630]	F
COC(=O)C(c1ccc2ccccc2c1)C1CCCCO1 (stereo not shown) [Naphthyl mixture]	F
N#CC(c1ccc(Cl)c(Cl)c1)C1CCCCC1 (stereo not drawn) [Compound 8, α-cyclohexyl-3,4-dichlorobenzylcyanide]	T

Check the entry N#CC(c1ccc(Cl)c(Cl)c1)C1CCCC1 (stereo not drawn) [Compound 10, α-cyclopentyl-3,4-dichlorobenzylcyanide] : does DAT/SERT RATIO equal or exceed 20?
T
